Source: patent US5750648A

Where a name gives a salt, the structure may show the parent alone.
For UniProt P04585, measured pIC50 is reported for the entries below.
pIC50 here is simply -log10 of the concentration when that concentration is written in mol/L.

Input line: Provide one value: measured pIC50 of CC(C)CCN(C[C@@H](O)[C@H](Cc1ccccc1)NC(=O)[C@@H](NC(=O)CN)C(C)(C)C)C(=O)NC(C)(C)C [Example 18, Hydrochloride Salt]
Output line: 8.00

Input line: Provide one value: measured pIC50 of CC[C@H](C)[C@H](NC(=O)[C@@H](C)NC)C(=O)N[C@@H](Cc1ccccc1)[C@H](O)CN(CCC(C)C)C(=O)NC(C)(C)C [Example 23]
Output line: 7.10

Turning now to a further record.
Input line: Provide one value: measured pIC50 of CC(C)CCN(C[C@@H](O)[C@H](Cc1ccccc1)NC(=O)[C@@H](NC(=O)[C@@H]1CCCN1C(=O)OCc1ccccc1)C(C)(C)C)C(=O)NC(C)(C)C [Example 19]
Output line: 5.66

###

- Experimental target: HIV protease (Human immunodeficiency virus type 1 group M subtype B)
- Test protocol: HIV protease enzyme assay (fluorescent substrate 2-aminobenzoyl-Ile-Nle-Phe(p-NO2)-Gln-ArgNH2)
- Format: biochemical
- Condition: concentration at which the inhibitor reduces enzyme activity by 50%; enzyme about 12.3 nanomolar, substrate about 80 μM, pH 6.4
Experimental endpoint: pIC50
pIC50 here is simply -log10 of the concentration when that concentration is written in mol/L.

Example cases with answers are listed next.
Input line: Provide one value: measured pIC50 of CNCC(=O)N[C@H](C(=O)N[C@@H](Cc1ccccc1)[C@H](O)CN(CCC(C)C)C(=O)NC(C)(C)C)C(C)(C)C
Output line: 8.22

Input line: Provide one value: measured pIC50 of CC(C)CCN(C[C@@H](O)[C@H](Cc1ccccc1)NC(=O)[C@@H](NC(=O)CN(C)C)C(C)(C)C)C(=O)NC(C)(C)C
Output line: 8.00

Turning now to a further record.
Input line: Provide one value: measured pIC50 of CC[C@H](C)[C@H](NC(=O)[C@@H]1CCCN1)C(=O)N[C@@H](Cc1ccccc1)[C@H](O)CN(CCC(C)C)C(=O)NC(C)(C)C
Output line: 7.29
